pIC50: −log10 of the molar value.
Collected from the literature: pIC50 of various compounds toward Cyclin-dependent kinase 4 (Homo sapiens).

Some compounds with known pIC50 results, for comparison:
compound=CCN1CCN(Cc2ccc(Nc3ncc4c(n3)-c3c(nc(C)n3C(C)C)CC4)nc2)CC1 value_kind=pIC50 recorded_result=8.30
compound=CN(C)C(=O)c1cc2cnc(N(c3ncc4cc(C(=O)N(C)C)n(C5CCCC5)c4n3)c3nccc(Sc4cnc(N5CC[C@H](N)c6ccccc6C5)cn4)c3Cl)nc2n1C1CCCC1 value_kind=pIC50 recorded_result="< 6.00"

Okay, next one:
GET /values?readout=pIC50&item= "NCCCNc1ncccc1-c1ccnc(Nc2cccc(S(N)(=O)=O)c2)n1" 4.82 to 5.30

* * *

Collected from the literature: pIC50 of various compounds toward Cyclin-dependent kinase 4 (Homo sapiens).
pIC50: −log10 of the molar value.

structure_string=CCN1CCN(c2ccc(Nc3ncc(-c4cccc(OC)c4)o3)cc2)CC1 recorded_result="> 7.00"
structure_string=CC1(C)Oc2cnc(Nc3ccc(N4CCNCC4)cn3)nc2N(c2ccccc2)C1=O recorded_result="7.00 to 7.70"

GET /values?readout=pIC50&item= "CC(C)N1C(=O)COc2c(F)cc(-c3nc(Nc4ccc(N5CCNCC5)cn4)ncc3F)cc21" 8.22

Now this one: "Cc1cn(C2CCCC2)c2nc(Nc3ccc(N4CCOCC4)cn3)ncc12" > 5.00

* * *

Collected from the literature: IC50 of various molecules toward Cyclin-dependent kinase 4 (Homo sapiens).

molecule=COc1cccc(-c2cnc(Nc3ccc(N4CCCCC4)cc3)o2)c1 recorded_result="< 10000 nM"
molecule=CN(C)C(=O)c1sc2cnc(Nc3cccc(N4CCOCC4)c3)cc2c1C1CCCC1 recorded_result="262 nM"
molecule="CC(=O)c1c(C)c2cnc(Nc3ccc(N4CCN(CC5C(=O)O[C@@H]6[C@H]7O[C@]7(C)CCC/C=C(\\C)C[C@@H]56)CC4)cn3)nc2n(C2CCCC2)c1=O (some centres unmarked)" recorded_result="85 nM"
molecule="CCOC(=O)C(C(C)C)n1ccc2cnc(Nc3ccc(N4CCN(C(C)=O)CC4)cc3)nc21 (centres unmarked)" recorded_result="< 10000 nM"

GET /values?readout=IC50&item= "Cc1cn(C2CCCC2)c2nc(Nc3ccc4[nH]ncc4c3)ncc12" < 10000 nM

Now this one: "COc1cccc(-c2cnc(Nc3ccc(N4CCN(C)CC4)cc3)o2)c1" < 100 nM

Now this one: "CN(C)Cc1ccc(Nc2ncc(-c3cccc(OC4CCCC4)c3)o2)cc1" < 100 nM

Now this one: "CC1(C)Oc2cnc(Nc3ccc(N4CCN(C5CCC5)CC4)cn3)nc2N(C2CCCC2)C1=O" ≤ 20 nM

* * *

Collected from the literature: pIC50 of various compounds toward Cyclin-dependent kinase 4 (Homo sapiens, UniProt P11802).
pIC50: −log10 of the molar value.

compound=CCC(CC)N1C(=O)C(C)(C)Oc2cnc(Nc3ccc(N4CCNCC4)cn3)nc21 recorded_result="≥ 7.70"
compound=CN1CCN(c2cccc(Nc3cc4c(C5CCCC5)c(C#N)sc4cn3)c2)CC1 recorded_result=6.24
compound=COc1cccc(-c2cnc(Nc3ccc(N4CCN(C)CC4)cc3C)o2)c1 recorded_result="> 6.00"
compound=Cc1c(C(=O)N(C)C)n(C2CCCC2)c2nc(Nc3ccc(N4CCNCC4)cn3)ncc12 recorded_result="> 5.00"
compound="CC(C)N1CCOc2c(F)cc(-c3nc(Nc4ccc5c(c4)CC(N(C)C)CC5)ncc3F)cc21 (centres unmarked)" recorded_result=7.25

GET /values?readout=pIC50&item= "Cc1nc2c(F)cc(-c3nc(Nc4nccc(Sc5cnc(N6CCC7(CC6)CO[C@@H](C)[C@H]7N)cn5)c4C#N)ncc3F)cc2n1C(C)C" 8.52

Now this one: "CCCOc1cccc(-c2cnc(Nc3ccc(N4CCN(C)CC4)cc3)o2)c1" > 7.00

Now this one: "CCN1CCN(Cc2ccc(Nc3ncc4c(n3)N(C3CCCC3)C(=O)C(C)(C)O4)nc2)CC1" ≥ 7.70

* * *

Collected from the literature: IC50 of various molecules toward Cyclin-dependent kinase 4 (Homo sapiens).

Some molecules with known IC50 results, for comparison:
molecule=CC(C)n1c(C(=O)N(C)C)cc2nc(-c3nc(Nc4ccc(N5CCNCC5)cn4)ncc3F)ccc21 recorded_result="≤ 0.02 µM"
molecule=Cc1cn(C2CCCC2)c2nc(Nc3cccnc3)ncc12 recorded_result="< 10 µM"
molecule=CCC(CC)n1c(CNCc2ccco2)cc2cnc(Nc3ccc(N4CCN(C(C)=O)CC4)cc3)nc21 recorded_result="< 10 µM"

GET /values?readout=IC50&item= "CN1CCN(c2ccc(Nc3ncc4ccn(C5CCCC5)c4n3)nc2)CC1" < 10 µM

Now this one: "COc1ncccc1-c1ccnc(Nc2cccc(S(N)(=O)=O)c2)n1" < 5 µM

Now this one: "Cc1cn(C2CCCC2)c2nc(Nc3ccc(CO)cc3)ncc12" < 10 µM

Now this one: "Cc1nc(Nc2ncc(F)c(-c3cc(F)c4c(c3)N(C(C)C)CCO4)n2)ccc1C1CCN(C)CC1" 0.005 µM

Now this one: "CC(C)NCCCNc1ncccc1-c1ccnc(Nc2cccc(Cl)c2)n1" 5 to 15 µM

Now this one: "Clc1cccc(Nc2nccc(-c3cccnc3NCCCn3ccnc3)n2)c1" 5 to 15 µM

Now this one: "NCCCCNc1ncccc1-c1ccnc(Nc2cccc(Cl)c2)n1" < 5 µM

Now this one: "CN(C)CCCNc1ncccc1-c1ccnc(Nc2cccc(Cl)c2)n1" 5 to 15 µM

Now this one: "Cc1cn(C2CCCC2)c2nc(Nc3ccc(C(=O)N4CCOCC4)cc3)ncc12" < 10 µM

Now this one: "CCC(CC)n1c(C(=O)NC2CCCC2)cc2cnc(Nc3ccc(N4CCNCC4)cc3)nc21" < 10 µM

Now this one: "Clc1cccc(Nc2nccc(-c3ccnc4ccccc34)n2)c1" 5 to 15 µM

Now this one: "CS(=O)(=O)NCCCNc1ncccc1-c1ccnc(Nc2cccc(Cl)c2)n1" 15 to 50 µM

Now this one: "Cc1nc2c(F)cc(-c3nc(Nc4cc(Sc5cnc(N6CCC7(CC6)CO[C@@H](C)[C@H]7N)cn5)c(Cl)cn4)ncc3F)cc2n1C(C)C" > 1 µM

Now this one: CN(C)C(=O)C1Oc2cnc(Nc3ccc(N4CCNCC4)cn3)nc2N(C2CCCC2)C1=O (stereo not drawn) ≤ 0.02 µM

Now this one: "COc1cccc(-c2cnc(Nc3ccc(CCN(C)C)cc3)o2)c1" < 0.1 µM

* * *

pIC50: −log10 of the molar value.
Collected from the literature: pIC50 of various compounds toward Cyclin-dependent kinase 4 (Homo sapiens, UniProt P11802).
value-kind: pIC50

Some compounds with known pIC50 results, for comparison:
compound=N#CC1CN(C(=O)c2sc3cnc(Nc4ccc(N5CCNCC5)cn4)cc3c2C2CCCC2)C1 value_kind=pIC50 recorded_result=8.28
compound=CC(C)N1CCOc2c(F)cc(-c3nc(Nc4cc5n(n4)CCN(C)C5)ncc3F)cc21 value_kind=pIC50 recorded_result=8.80
compound=CC(C)N1CCOc2c(F)cc(-c3nc(Nc4ccc(S(=O)(=O)NCCN(C)C)cc4)ncc3F)cc21 value_kind=pIC50 recorded_result=8.70
compound="CC(=O)c1c(C)c2cnc(Nc3ccc(N4CCN(CC5CC6(OC5=O)C(=O)Nc5ccccc56)CC4)cn3)nc2n(C2CCCC2)c1=O (centres unmarked)" value_kind=pIC50 recorded_result=7.34
compound=CC(C)N1CCOc2c(F)cc(-c3nc(Nc4cccc(N5CCCNCC5)c4)ncc3F)cc21 value_kind=pIC50 recorded_result=7.40
compound=CC(C)N1CCOc2c(F)cc(-c3nc(Nc4cc(F)c(C5CCNCC5)cn4)ncc3F)cc21 value_kind=pIC50 recorded_result=8.52
compound="c1cc(Nc2ncc3c(n2)-c2c(cnn2C2CCOC2)CC3)ncc1N1CCNCC1 (centres unmarked)" value_kind=pIC50 recorded_result=7.39
compound=CN(C)C(=O)c1cc2cnc(Nc3nccc(Sc4cnc(N5CCN([C@H]6Cc7ccccc7[C@H]6N)CC5)cn4)c3Cl)nc2n1C1CCCC1 value_kind=pIC50 recorded_result=6.04
compound=CC(C)N1CCOc2c(F)cc(-c3nc(Nc4ccc5c(c4)CCN(C(=O)CN(C)C)C5)ncc3F)cc21 value_kind=pIC50 recorded_result=8.40
compound=CN(C)C(=O)c1sc2cnc(Nc3ccc(N4CCNCC4)cn3)cc2c1C1CCCCC1 value_kind=pIC50 recorded_result=8.85

P: CC(C)n1ncc2c1-c1nc(Nc3ccc(N4CCNCC4)cn3)ncc1CC2(C)C
Q: CN(C)C(=O)c1sc2cnc(Nc3ccc(N4CCNCC4)cn3)cc2c1C1=CCCC1
Recorded pIC50 values differ for P and Q ; which one is higher? Lab log: write the label of the selected item as the result. Q

* * *

Collected from the literature: pIC50 of various compounds toward Cyclin-dependent kinase 4 (Homo sapiens, UniProt P11802).
pIC50: −log10 of the molar value.
value-kind: pIC50

compound=Cc1nc2c(F)cc(-c3nc(Nc4cc(Sc5cnc(N6CCC7(CC6)CO[C@@H](C)[C@H]7N)cn5)ccn4)ncc3F)cc2n1C(C)C value_kind=pIC50 recorded_result=7.77

a: CCn1nc2c(c1C(C)C)-c1nc(Nc3ccc(N4CCNCC4)cn3)ncc1OC2
b: CC(C)N1CCOc2c(F)cc(-c3nc(Nc4cnn(C5CCC(O)CC5)c4)ncc3F)cc21 (stereo not shown)
Kindly compare a with b and tell me which has the lower pIC50 figure. Lab log: write the label of the selected item as the result. b
(b: 7.70, a: 8.15)
